These data points were gathered from paper PMC10530208.

# Test system: C. parvum
# Experimental Protocol: Air-liquid interface
# Assay type: cell-based, Cryptosporidium parvum
# Condition Context: Cryptosporidium parvum, read-out: Cp EC50 in ALI cultures
Property Label: pEC50
To interpret pEC50, take it as minus log10 of a concentration measured in moles per litre.

N#Cc1cccc2cc[nH]c12 :: 3.42

Proceed to the following item.
Item: c1ccc2[nH]ccc2c1 | pEC50: 3.24
